Target: UGT2B10 (Homo sapiens)
Sequence (P36537 24-528): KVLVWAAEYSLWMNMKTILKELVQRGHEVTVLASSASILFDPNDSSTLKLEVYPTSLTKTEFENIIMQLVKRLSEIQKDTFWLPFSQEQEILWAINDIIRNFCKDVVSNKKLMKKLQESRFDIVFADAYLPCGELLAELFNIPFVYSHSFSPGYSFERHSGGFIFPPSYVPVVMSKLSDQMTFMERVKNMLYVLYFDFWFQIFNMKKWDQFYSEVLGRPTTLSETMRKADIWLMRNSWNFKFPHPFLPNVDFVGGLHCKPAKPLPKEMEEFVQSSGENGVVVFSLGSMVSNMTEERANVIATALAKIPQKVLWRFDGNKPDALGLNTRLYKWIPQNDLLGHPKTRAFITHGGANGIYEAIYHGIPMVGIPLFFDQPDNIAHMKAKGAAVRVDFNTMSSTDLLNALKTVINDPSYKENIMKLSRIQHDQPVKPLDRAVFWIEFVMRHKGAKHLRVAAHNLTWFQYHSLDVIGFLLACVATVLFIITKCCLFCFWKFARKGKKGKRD
Assay: biochemical
Details: IC50 against UGT2B10 (μM), Table 9; pooled human liver microsomes, nicotine 500 μM
Counter-ions that a name gives are not always drawn.
assayReadout: IC50 (µM)
One number for each entry, in µM.

Field: example entries. Status: answers known.
- COc1ccncc1C#CCN: 33
- NCC#Cc1cncc2ccccc12 [Compound A, Dihydrochloride]: 770

Please look at the following compound next.
For the compound "Cc1ncccc1C#CCN" , what IC50 is on record? 286

###

Molecular target: CYP2A6 (Homo sapiens, UniProt P11509)
Conditions: both, human, microsomes, pH 7.4
Where a name gives a salt, the structure may show the parent alone.
Answer each item with its documented pIC50.
Answers are plain numbers, as −log10 of the molar value.

Some compounds with recorded pIC50:
- NCc1ccc(-c2cnccc2-c2cncnc2)s1 [Compound AL, Trihydrochloride]: 5.92
- Cc1ccncc1C#CCN: 7.26
- NCc1ccc(-c2cnccc2-c2cncnc2)o1 [Compound AK, Trihydrochloride]: 5.89
- CCc1ccncc1C#CCN: 6.08

Now examine the next entry.
Dear colleague, I am looking for the recorded pIC50 of the following compound: NCC#Cc1cnccc1-c1ccncc1 [Compound P, Trihydrochloride] 5.44

###

Target: CYP2A6 (Homo sapiens)
Sequence (P11509 1-494): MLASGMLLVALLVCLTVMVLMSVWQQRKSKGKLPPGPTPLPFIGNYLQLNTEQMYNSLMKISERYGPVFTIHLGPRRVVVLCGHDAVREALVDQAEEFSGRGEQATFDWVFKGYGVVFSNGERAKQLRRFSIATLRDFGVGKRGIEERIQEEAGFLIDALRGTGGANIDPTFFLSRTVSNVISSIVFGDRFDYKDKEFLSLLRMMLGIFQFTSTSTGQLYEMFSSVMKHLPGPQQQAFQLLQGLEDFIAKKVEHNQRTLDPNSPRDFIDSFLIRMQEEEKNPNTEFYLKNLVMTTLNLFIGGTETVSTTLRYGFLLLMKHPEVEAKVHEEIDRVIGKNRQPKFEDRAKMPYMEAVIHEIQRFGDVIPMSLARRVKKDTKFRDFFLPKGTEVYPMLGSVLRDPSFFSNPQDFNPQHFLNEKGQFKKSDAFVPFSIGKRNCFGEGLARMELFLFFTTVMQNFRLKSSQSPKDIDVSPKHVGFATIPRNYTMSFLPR
Assay: biochemical
Settings: IC50 against CYP2A6 (μM), Table 7, thiophene and furan nicotine analogues; pooled human liver microsomes, coumarin
Structures can show the parent of a compound that is named as a salt.
assayReadout: IC50 (µM)
One number for each entry, in µM.

Which value of IC50 has been reported for NCc1ccc(-c2cnccc2Cl)s1 [Compound AB, Dihydrochloride] in the records? 0.11

###

Target: CYP2A6 (Homo sapiens)
Sequence (P11509 1-494): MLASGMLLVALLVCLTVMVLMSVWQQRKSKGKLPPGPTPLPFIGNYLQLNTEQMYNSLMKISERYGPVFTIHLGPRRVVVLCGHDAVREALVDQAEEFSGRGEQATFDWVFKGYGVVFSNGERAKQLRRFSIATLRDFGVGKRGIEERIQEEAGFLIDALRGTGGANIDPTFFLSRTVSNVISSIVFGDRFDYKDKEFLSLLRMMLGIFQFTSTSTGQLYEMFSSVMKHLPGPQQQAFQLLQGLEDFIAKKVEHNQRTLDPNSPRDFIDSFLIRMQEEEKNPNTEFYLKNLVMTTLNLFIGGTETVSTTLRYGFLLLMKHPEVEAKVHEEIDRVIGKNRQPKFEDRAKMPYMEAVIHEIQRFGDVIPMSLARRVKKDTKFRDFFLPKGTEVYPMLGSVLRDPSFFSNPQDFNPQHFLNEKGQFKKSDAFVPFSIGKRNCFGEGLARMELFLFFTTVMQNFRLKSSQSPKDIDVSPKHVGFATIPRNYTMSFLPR
Conditions: read-out: IC50 against CYP2A6; Table 5, alkyne linker agents; pooled human liver microsomes, coumarin […]
assayReadout: IC50 (µM)
Numbers only, in µM.

// fetch CYP2A6 (Homo sapiens) IC50 for COc1ccncc1C#CCN [Compound K] 3.4

###

Test: in vitro
Conditions: 10 μM, pH 7.4
Counter-ions that a name gives are not always drawn.
assayReadout: T1/2 (min) in human liver microsomes

// below: answered molecules
• NCc1ccc(-c2cnccc2-c2cncnc2)s1 [Compound AL, Trihydrochloride] = >120 min
• NCc1ccc(-c2cnccc2-c2ccncc2)s1 [Compound AJ, Trihydrochloride] = 32 min
• NCc1ccc(-c2cnccc2-c2cccnc2)o1 [Compound AG, Trihydrochloride] = >120 min
• NCC#Cc1cnccc1-c1ccncc1 [Compound P, Trihydrochloride] = 36 min
• NCc1ccc(-c2cnccc2-c2cncnc2)o1 [Compound AK, Trihydrochloride] = >120 min

Now examine the next entry.
Could you tell me which T1/2 (min) in human liver microsomes is on file for NCC#Cc1cnccc1-c1cncnc1 [Compound Q, Trihydrochloride] ? >120 min
